Tested on: copper "scavenging" of superoxide anion produced by the hypoxanthine/xanthine oxidase system
Assay: Copper "scavenging" effect (superoxide anion from hypoxanthine/xanthine oxidase system, cytochrome C)
Assay type: biochemical
Details: hypoxanthine/xanthine oxidase, cytochrome c
test readout: % Reduction (effect on copper "scavenging" action) (%)
Quick reminder: number only, in %, skip the unit.

Illustrative cases are given below, each with its answer.
> print(dat)
                                   compound  reported.result
1  O=C1c2ccccc2C(=O)c2c1cccc2S(=O)(=O)O [1-AQ, 1-anthraquinonesulfonic acid]                3
2  O=C1c2cccc(S(=O)(=O)O)c2C(=O)c2cccc(S(=O)(=O)O)c21 [1,5-anthraquinonedisulfonic acid, Anthraquinone-1,5-disulfonic acid]                4
3  O=C1c2ccccc2C(=O)c2cc(S(=O)(=O)O)ccc21 [2-AQ, 2-anthraquinonesulfonic acid]                5

Turning now to a further record.
Query (compound): O=C(O)c1cc(O)c2c(c1)C(=O)c1cccc(O)c1C2=O [Rhein, rhein] ; field requested: % Reduction (effect on copper "scavenging" action)
45
